subjectOfTest: CDK2/Cyclin A2 (Homo sapiens)
assayNotes: Inhibition of human N-terminal GST-tagged CDK2 (1 to 298 residues)/Cyclin A (174 to 432 residues) expressed in Escherichia coli Turner (DE3) cells assessed as reduction in ADP formation using PKTPKKAKKL as substrate by resorufin dye based fluorescence assay
pIC50: −log10 of the molar value.

compound: CC1(C)CC(=O)c2cnn(-c3ccccn3)c2C1
qualifierSign: <
pIC50: 3.00
//
compound: Cc1nn(-c2ccccn2)c2c1C(=O)CC(C)(C)C2F (stereo unspecified)
qualifierSign: =
pIC50: 4.68
//
compound: Cc1nn(-c2ccc(N)cn2)c2c1C(=O)CC(C)(C)C2Br (stereo unspecified)
qualifierSign: =
pIC50: 5.34
//
compound: Cc1nn(CCC#N)c2c1C(=O)CC(C)(C)C2Br (stereo unspecified)
qualifierSign: <
pIC50: 3.00
//
compound: COC1c2c(c(C)nn2-c2ccccn2)C(=O)CC1(C)C (stereo unspecified)
qualifierSign: =
pIC50: 4.34
//
compound: COc1cccc(-n2nc(C)c3c2C(Br)C(C)(C)CC3=O)n1 (stereo unspecified)
qualifierSign: =
pIC50: 5.68
//
compound: Cc1nn(-c2ccccn2)c2c1C(=O)CC(C)(C)C2Sc1ccccc1 (stereo unspecified)
qualifierSign: =
pIC50: 4.92
//
compound: Cc1nn(-c2ccc(NS(C)(=O)=O)cn2)c2c1C(=O)CC(C)(C)C2Br (stereo unspecified)
qualifierSign: =
pIC50: 4.72
//
compound: Cc1nn(-c2ncccc2C(F)(F)F)c2c1C(=O)CC(C)(C)C2Br (stereo unspecified)
qualifierSign: =
pIC50: 3.34
//
compound: Cc1nn(-c2ccccn2)c2c1C(=O)CC(C)(C)C2N=[N+]=[N-] (stereo unspecified)
qualifierSign: =
pIC50: 5.35
//
compound: CC(=O)Nc1ccc(-n2nc(C)c3c2C(Br)C(C)(C)CC3=O)nc1 (stereo unspecified)
qualifierSign: =
pIC50: 5.44
